- testedOn: Proteasome Macropain subunit MB1 (Homo sapiens) (UniProt P28074)
- Sequence (P28074 whole entry): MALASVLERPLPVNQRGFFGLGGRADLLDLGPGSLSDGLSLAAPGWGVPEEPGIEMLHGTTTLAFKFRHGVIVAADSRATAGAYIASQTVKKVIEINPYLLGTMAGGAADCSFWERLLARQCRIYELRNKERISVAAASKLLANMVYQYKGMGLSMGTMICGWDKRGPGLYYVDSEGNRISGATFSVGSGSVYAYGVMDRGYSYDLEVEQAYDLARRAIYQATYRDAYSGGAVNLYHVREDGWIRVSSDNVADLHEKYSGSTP
- testSummary: Inhibition of chymotrypsin-like activity of human 20S proteasome beta 5 subunit assessed as Suc-Leu-Leu-Val-Tyr-AMC substrate hydrolysis at 20 uM after 10 mins by fluorometric analysis
Entries are grouped by inhibition into these classes: 1 (below 20%), 2 (20% to below 80%), 3 (80% or more)

Some solved entries appear below for comparison.
structuresmiles=O=C(Cn1ccc(Nc2ccccc2)cc1=O)NC12CC3CC(CC(C3)C1)C2 class=1
structuresmiles=CCN(CC)c1ccn(CC(=O)NCCC(C)C)c(=O)c1 class=2
structuresmiles=O=C(Cn1ccccc1=O)Nc1ccccc1 class=2
structuresmiles=CCN(CC)c1ccn(CC(=O)N[C@@H](CC(C)C)B(O)O)c(=O)c1 class=3
structuresmiles=CC(C)C[C@H](NC(=O)Cn1ccc2c(c1=O)CCCN2C)B(O)O class=3

## Task Dear colleague, I would appreciate it if you could identify the bin for CC(C)C[C@H](NC(=O)Cn1cc(Br)c2ncccc2c1=O)B(O)O and reply at your convenience.
## Result 3

## Task Place this compound in its band: O=C(Cn1ccccc1=O)NCc1ccccc1
## Result 1

## Task Into which bin does this compound go? CC(C)CCNC(=O)Cn1ccc2c(c1=O)CCCN2C
## Result 1

## Task Class? Entry: O=C(Cn1ccc(Nc2ccccc2)cc1=O)Nc1ccccc1
## Result 1

## Task Hi there! Could you help me figure out the category for CC(C)CCNC(=O)Cn1ccc(Nc2ccccc2)cc1=O please?
## Result 3

## Task Please report the category associated with CC(C)C[C@H](NC(=O)[C@H](C)n1ccc2ncccc2c1=O)B(O)O , nothing else.
## Result 3

## Task Textbook exercise: identify the category of the compound given here, CC(C)CCNC(=O)Cn1cc(Br)c2ncccc2c1=O , according to its measured value.
## Result 2

## Task Consider CC(C)CCNC(=O)Cn1ccc2ncccc2c1=O . To which inhibition class does it belong?
## Result 1

## Task Any idea which band CC(C)CCNC(=O)Cn1ccc(N2CCOCC2)cc1=O is in?
## Result 2

## Task Band for COc1ccc(NC(=O)Cn2ccc(Nc3ccccc3)cc2=O)cc1 ?
## Result 2

## Task Kindly state the category for this compound: O=C(Cn1ccc(Nc2ccccc2)cc1=O)NCc1ccccc1
## Result 1

## Task Which category does the recorded inhibition put CC(C)C[C@H](NC(=O)Cn1ccc(Nc2ccccc2)cc1=O)B(O)O in?
## Result 3

## Task Place this compound in its band: CC(C)C[C@H](NC(=O)[C@H](Cc1ccccc1)NC(=O)c1cnccn1)B(O)O
## Result 3

## Task Please let me know in which category the item CC(C)CCNC(=O)Cn1ccc(N2CCCCC2)cc1=O belongs.
## Result 2

## Task Lab note: which band did COc1ccc(NC(=O)Cn2ccccc2=O)cc1 land in?
## Result 2
